Data credit: paper doi:10.1101/2020.03.06.976563v1

# target.of.assay: AAK1 (Homo sapiens, UniProt Q2M2I8)
# Sequence (Q2M2I8 whole entry): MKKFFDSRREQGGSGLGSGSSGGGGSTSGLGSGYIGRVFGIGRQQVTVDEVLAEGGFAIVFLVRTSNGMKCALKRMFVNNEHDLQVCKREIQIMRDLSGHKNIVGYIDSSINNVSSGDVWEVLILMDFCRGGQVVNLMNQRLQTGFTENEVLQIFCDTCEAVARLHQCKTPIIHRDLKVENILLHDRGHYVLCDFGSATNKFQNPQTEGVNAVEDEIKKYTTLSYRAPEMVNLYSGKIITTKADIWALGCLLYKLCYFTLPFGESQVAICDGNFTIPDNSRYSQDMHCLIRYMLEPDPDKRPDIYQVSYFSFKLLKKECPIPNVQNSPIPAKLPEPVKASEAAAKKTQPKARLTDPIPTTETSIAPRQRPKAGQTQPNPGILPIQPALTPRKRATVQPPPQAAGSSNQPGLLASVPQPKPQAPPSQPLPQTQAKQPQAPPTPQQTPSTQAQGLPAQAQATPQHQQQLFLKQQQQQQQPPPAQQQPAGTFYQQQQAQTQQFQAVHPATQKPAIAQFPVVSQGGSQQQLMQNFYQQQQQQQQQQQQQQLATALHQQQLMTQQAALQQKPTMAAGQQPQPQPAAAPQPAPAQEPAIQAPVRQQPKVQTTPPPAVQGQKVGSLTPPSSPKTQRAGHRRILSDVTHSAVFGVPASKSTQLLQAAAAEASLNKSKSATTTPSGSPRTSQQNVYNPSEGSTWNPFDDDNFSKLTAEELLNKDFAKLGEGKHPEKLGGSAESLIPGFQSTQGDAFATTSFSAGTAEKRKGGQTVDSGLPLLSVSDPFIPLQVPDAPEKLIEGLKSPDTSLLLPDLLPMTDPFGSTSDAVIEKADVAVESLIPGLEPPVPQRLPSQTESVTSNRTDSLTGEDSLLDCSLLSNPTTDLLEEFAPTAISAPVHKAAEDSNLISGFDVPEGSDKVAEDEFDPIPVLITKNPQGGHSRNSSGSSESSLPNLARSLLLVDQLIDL
# protocol.text: biochemical
We label by threshold. Values of Ki strictly beneath 5 µM are 1 (yes). Values of 5 µM and up are 0 (no).

{"columns": ["smiles.record", "classification"],
 "data": [
  ["FS(F)(F)(F)(F)c1cccc(Nc2ccnc3ccc(Br)cc23)c1", "0 (no)"],
  ["COc1cccc(Nc2ccnc3ccc(Br)cc23)c1", "1 (yes)"],
  ["O=[N+]([O-])c1cccc(Nc2ccnc3ccc(Br)cc23)c1", "0 (no)"],
  ["Oc1cccc(Nc2ccnc3ccc(Br)cc23)c1", "1 (yes)"],
  ["Brc1ccc2nccc(Nc3cccc4c3OCO4)c2c1", "0 (no)"],
  ["CC(C)(C)c1cccc(Nc2ccnc3ccc(Br)cc23)c1", "0 (no)"],
  ["COc1cccc(Nc2ncnc3ccc(Br)cc23)c1", "1 (yes)"],
  ["CC(C)(C)Oc1cccc(Nc2ccnc3ccc(Br)cc23)c1", "0 (no)"],
  ["Brc1ccc2nccc(Nc3ccc4c(c3)OCO4)c2c1", "0 (no)"]
]}
